Where these numbers come from: patent US20120214840A1

Test system: LTB4 in human leukocytes
procedure.details: Human Leukocyte LTB4 Inhibition Assay
Assay type: cell-based
measurement.context: human leukocytes stimulated with calcium ionophore, 30 minutes at 37° C., LTB4 by ELISA; read-out: LTB4 HLA IC50
observed.property: IC50

Task: Can you share its IC50? I mean this compound: CCC(O)(c1cn(Cc2ccc3c(-c4ccc(F)cc4)c(C(N)=O)cn3c2)nn1)C(F)(F)F (single isomer, unassigned; enantiomer b)
Result: < 300 nM
